Test system: MDA-MB-468 breast
Assay: NCI-60 one-dose screen, 48 h (100 = growth as untreated, 0 = no growth, -100 = all killed)
Conditions: 10 µM unless noted
The panel holds about 83,000 compounds, 20% with a hit somewhere; the sample as a whole holds those more often.
growth: recorded values
API: value field is a number in %; no unit string.

Substance Smiles: COc1ccc(C(=O)c2sc3nc4c(cc3c2N)N2CCC4CC2)cc1OC
Readout Units: %
growth: 72.2
//
Substance Smiles: C=CC1=C[C@@H]2[C@@H]3O[C@]4(CC[C@H](O4)[C@@H](C)C[C@@H](O)C3=O)C[C@H](O)C3=NCC[C@@]32CC1
Readout Units: %
growth: -56
//
Substance Smiles: CC1=C(CN(O)C(N)=O)C2=C(C)C3(CC3)[C@@](C)(O)C(=O)C2=C1
Readout Units: %
growth: -69.1

Lab note: measured growth of `CC[n+]1c(-c2ccccc2)c2cc(N)ccc2c2ccc(N)cc21` was -62.8

Lab note: measured growth of `Cc1cc(N(CCCl)CCCl)ccc1C=Nc1cccnc1` was -74.8

Lab note: measured growth of `O=C(/C=C/c1ccccc1)c1nc2ccccc2n1Cc1ccc(Br)cc1` was -93.1

Lab note: measured growth of `Cc1nc2ccccc2c(=O)n1-c1ccccc1F` was 105

Lab note: measured growth of `CCCCOC(N)=O` was 101

Lab note: measured growth of `CNC(=O)Oc1cccc(C(F)(F)F)c1` was 110

Lab note: measured growth of `COc1ccc(OC)c(/C=C/C(=O)c2nc3ccccc3n2Cc2ccc(F)cc2)c1` was -57.3

Lab note: measured growth of `O=P(Oc1ccc(Cl)cc1)(N1CC1)N1CC1` was 54.1

Data provenance: PubChem BioAssay (NCI)
